# TARGET: T1, recombinant human LIGHT-214K, FLAG-tagged extracellular domain (human)
# T1 construct: the IgK leader peptide is marked only by underlining (not visible here), so its residues were not removed; Trimer
# T1 chain: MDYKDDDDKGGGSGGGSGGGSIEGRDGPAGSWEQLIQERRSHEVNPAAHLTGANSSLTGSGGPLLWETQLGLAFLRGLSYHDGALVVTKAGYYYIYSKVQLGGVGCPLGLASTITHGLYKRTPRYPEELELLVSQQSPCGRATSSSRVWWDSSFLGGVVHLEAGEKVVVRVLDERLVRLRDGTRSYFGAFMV
# PROCEDURE_SUMMARY: SPR ProteOn, mAb captured on anti-mouse IgG, LIGHT 256 nM, 25 C, apparent affinity
READOUT_LABEL: pKd
Answer as the number alone; pKd is minus log10 of concentration in mol/L.

1) 13H04 (purified from hybridoma supernatant) (antibody, V domains shown, Murine constant / human variable chimeric IgG, lambda, Protein G purified from hybridoma supernatant) VH: QVQLVQSGAEVKKPGASVKVSCKASGYTFTSYGISWVRQAPGQGLEWMGWISAHNANTNYAQKLQGRVTMTTDTSTSTAYMELRSLRSDDTAMYYCARLYRNWFDPWGQGTLVTVSS VL: QSALTQPASVSGSPGQSITISCTGTSSDVGGYNYVSWYQQHPGKAPKLMIYDVSKRPSGVSNRFSGSKSGNTASLTISGLQAEDEADYYCCSYAGSSTLLFGGGTKLTVL; 8.80

# evaluate next
In one line, give reported pKd of the entry 14B09 (purified from hybridoma supernatant) (antibody, V domains shown, Murine constant / human variable chimeric IgG, lambda, Protein G purified from hybridoma supernatant) VH: QVQLVQSGAEVKKPGASVKVSCRASGYTFTSYLMHWVRQAPGQRLEWMGWINVGNGNTKYSQKFQGRVTITRDTSASTAYMELSGLRSEDTAVYYCARNYYNWFDPWGQGTLVTVSS VL: QSALTQPASVSGSPGQSITISCTGTSSDVGGYNYVSWYQQHPGKAPKLMIYDVSKRPSGVSNRFSGSKSGNTASLTISGLQAEDEADYYCFSYAGSSTVVFGGGTKLTVL . 8.47
